tested on: HeLa; experiment: Antiviral activities in a cell culture HIV-1 infectivity inhibition assay using HeLa cells plus 50% normal human serum; type: functional
measuredAttribute: IC90

• CCCOc1ccc(Cc2cc(C3CCN(C[C@H]4CN([C@@H](C(=O)O)[C@H](C)CC)C[C@@H]4c4cccc(F)c4)CC3)n(CC)n2)cc1 = 300 nM
• CCn1nc(Cc2ccc(C(C)(C)C)cc2)cc1C1CCN(C[C@H]2CN([C@@H](C(=O)O)C(C)(C)C)C[C@@H]2c2cccc(F)c2)CC1 = 33 nM
• CCn1nc(Cc2ccc(C#N)cc2)cc1C1CCN(C[C@H]2CN([C@@H](C(=O)O)C3CCCCC3)C[C@@H]2c2cccc(F)c2)CC1 = 11 nM
• CCn1nc(Cc2ccc(F)c(F)c2)cc1C1CCN(C[C@H]2CN([C@@H](C(=O)O)C(C)C)C[C@@H]2c2cccc(F)c2)CC1 = 300 nM
• CC[C@@H](C)[C@H](C(=O)O)N1C[C@H](CN2CCC(c3cc(Cc4ccc(OC(F)F)cc4)nn3CC)CC2)[C@@H](c2cccc(F)c2)C1 = 11 nM
• CC[C@H](C)[C@H](C(=O)O)N1C[C@H](CN2CCC(c3cc(Cc4ccc(C(F)(F)F)cc4)nn3CC)CC2)[C@@H](c2cccc(F)c2)C1 = 33 nM

Lab book: IC90 of `CCn1nc(Cc2ccc(S(C)(=O)=O)cc2)cc1C1CCN(C[C@H]2CN([C@@H](C(=O)O)C(C)(C)C)C[C@@H]2c2cccc(F)c2)CC1` noted as 11 nM
